TEST NAME: NCI Yeast Anticancer Drug Screen. Data for the bub3 strain (AID 167)
CONDITIONS USED: S. cerevisiae bub3 mutant strain, at 50.0 µM, hits give high values
About 79,000 compounds went through this panel and 15% of them were active in at least one assay; those are over-represented in the sample as a whole.
Assign growth inhibition to each entry below.
The reply should contain only the number, in %.

Request: Fill in the blank: the reported growth inhibition of "C/C(Cc1ccccc1)=N\NS(=O)(=O)c1ccc(C)cc1" is ____.
Result: 1.1

Request: Now give it for "Clc1c(Cl)c(CBr)c(Cl)c(-c2c(Cl)c(Cl)c(Cl)c(CBr)c2Cl)c1Cl" too.
Result: 2.45

Request: Now give it for "C[n+]1ccc(/C=C/c2ccc(O)c(O)c2)c2ccccc21" too.
Result: 3.5

Request: Now give it for "O=c1cc(-c2ccc(F)cc2)oc2ccccc12" too.
Result: 13.7

Request: Now give it for "c1ccc(C2=C([P+](c3ccccc3)(c3ccccc3)c3ccccc3)CCO2)cc1" too.
Result: 98.3

Request: Now give it for "O=C(Nc1ccc(Cl)cc1)Nc1nnc(-c2ccccc2Br)o1" too.
Result: -22.6

Request: Now give it for "O=C(O)c1ccccc1C(=O)c1ccccn1" too.
Result: -17.2

Request: Now give it for "CC(C)(C)C(=O)CN" too.
Result: 11

Request: Now give it for "O=C1/C(=C\c2ccccn2)c2ccccc2N1Cc1ccccc1" too.
Result: 11.2

Request: Now give it for "CC(C)(C)OC(=O)N1CCCC1=O" too.
Result: 8.05

Request: Now give it for "CCNS(=O)(=O)c1ccccc1" too.
Result: -1.95

Request: Now give it for "COC(=O)/C(C#N)=C(C)/C=C/c1ccc(OC)cc1" too.
Result: 18.6

Request: Now give it for CCOC(=O)CC(C#N)C(C)C(=O)OCC (stereo not given) too.
Result: 0.9

Request: Now give it for CCN(CC)CC(O)CO (stereo not given) too.
Result: 2

Request: Now give it for CCOC(=O)CCC(C#N)C(=O)OCC (stereo not given) too.
Result: 27.6

Request: Now give it for "CCN(CC)c1ccccc1S(=O)(=O)O" too.
Result: -6.85

Request: Now give it for "Cc1sc2c(c1C)C(=O)c1cccn1-2" too.
Result: -13.9

Request: Now give it for "O=C1CC(=O)N(CCc2ccccc2)S(=O)(=O)N1CCc1ccccc1" too.
Result: -15.2

Request: Now give it for O=C1C=C(c2ccccc2)C(O)(c2ccccc2)/C1=C/C=C/c1ccccc1 (stereo not given) too.
Result: -5.2

Request: Now give it for "Cc1c2ccccc2nc(CSCCO)[n+]1[O-]" too.
Result: 5.5

Request: Now give it for "CSC(SC)[P+](c1ccccc1)(c1ccccc1)c1ccccc1" too.
Result: 91.2

Request: Now give it for CCCCCCCCCCC(C(=O)O)C1(C(=O)O)CCC(=O)O1 (stereo not given) too.
Result: -9.4

Request: Now give it for "O=C(O)c1cc(C(=O)O)cc(N2C(=O)c3ccccc3C2=O)c1" too.
Result: -6.1

Request: Now give it for "COc1cc(OC)c2c(=O)cc(-c3ccc(OC)c(OC)c3OC)oc2c1" too.
Result: -18.4

Request: Now give it for "c1ccc(-c2nc3ccccc3nc2-c2ccc(Cc3ccc(-c4nc5ccccc5nc4-c4ccccc4)cc3)cc2)cc1" too.
Result: -6.5

Request: Now give it for "Nc1c(OCc2ccccc2)cccc1C(=O)O" too.
Result: -40.5

Request: Now give it for "COc1ccc(NC(C)=O)cc1[N+](=O)[O-]" too.
Result: -18.3

Request: Now give it for "CNCCC1CCCCCC1" too.
Result: 10.9

Request: Now give it for COC(=O)CC1CSCC1=O (stereo not given) too.
Result: 12.6

Request: Now give it for "CN(N)C(=O)Nc1ccc([N+](=O)[O-])cc1" too.
Result: 12

Request: Now give it for CCOCC1c2ccccc2CCN1Cc1c[nH]c2ccccc12 (stereo not given) too.
Result: 0.6

Request: Now give it for O=C(OCC1OC(n2cnc3c(Cl)ncnc32)C(OC(=O)c2ccccc2)C1OC(=O)c1ccccc1)c1ccccc1 (stereo not given) too.
Result: -12.8

Request: Now give it for "CCC(C)(C)c1ccc([N+](=O)[O-])cc1" too.
Result: -0.65

Request: Now give it for "CC(=O)ONc1nc(C)c(CCC2OCCO2)c(SC(=N)N)n1" too.
Result: -1.7

Request: Now give it for "CC(/C=C/C(=O)c1ccccc1)=C\C=N\N(C)c1ccccc1" too.
Result: 4.95

Request: Now give it for CC(C)CCCC(C)C1CCC2C1CCC1C2CCC2(C)CCC(=O)CCC12C (stereo not given) too.
Result: 1.6

Request: Now give it for "O=S(=O)(c1ccc(Br)cc1)N1CCN(S(=O)(=O)c2ccc(Br)cc2)CC1" too.
Result: -23.4

Request: Now give it for CCOc1ccc(C(C)(CC)c2cc3c(cc2OC)OCO3)cc1 (stereo not given) too.
Result: -20.1

Request: Now give it for "C1C[OH+]CC[OH+]CCNCC[OH+]CC[OH+]CCN1.Cl.[Cl-].[Pt+4]" too.
Result: -3.65

Request: Now give it for CCOC1CCCC(OCC)O1 (stereo not given) too.
Result: -37.6

Request: Now give it for "CCCCN(C(=O)CCC)c1ccccc1" too.
Result: -11.2

Request: Now give it for "Cc1cccc(C(=O)NN)c1O" too.
Result: 23.9

Request: Now give it for "CCOC(=O)/C(C#N)=C/c1ccc([N+](=O)[O-])cc1" too.
Result: 0.35

Request: Now give it for "CCCCCCCCCCCCCCCC[Si](Cl)(Cl)Cl" too.
Result: 2.95

Request: Now give it for "N#Cc1ccc(OCCCCCOc2ccc(C#N)cc2I)c(I)c1" too.
Result: -0.85

Request: Now give it for "Nc1ccc(C(=O)O)c(O)c1.Nc1ccc(C(=O)O)c(O)c1.[Cu]" too.
Result: -1.95

Request: Now give it for O=C(O)C1CSC(c2cccs2)N1 (stereo not given) too.
Result: -32.2

Request: Now give it for "O=C1CN(C(=O)Nc2ccccc2)c2ccccc2N1" too.
Result: 7

Request: Now give it for Cc1ccc(-n2cc(-c3ccc(Cl)cc3)c3c2N=CN2NC(c4cccs4)=NC32)cc1 (stereo not given) too.
Result: -16.7

Request: Now give it for "O=[S@@]1Nc2cc3ccccc3cc2S1" too.
Result: -14.9

====

TEST NAME: NCI Yeast Anticancer Drug Screen. Data for the rad50 strain (AID 155);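 further: 0% = growth of vehicle-only cultures of the same strain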
CONDITIONS USED: S. cerevisiae rad50 strain growth inhibition; at 50.0 µM; hits give high values
About 79,000 compounds went through this panel and 15% of them were active in at least one assay; those are over-represented in the sample as a whole.
Assign growth inhibition to each entry below.
The reply should contain only the number, in %.

Request: Fill in the blank: the reported growth inhibition of CC(C)=CC(=O)OC1C2C(C)=CC(=O)C(O)C2(C)C2C3(O)OCC24C(CC(=O)OC14)C(C)C3O (configuration not stated) is ____.
Result: 91.6

Request: Now give it for "CCC(CC)c1ccc2ccccc2c1" too.
Result: -22.2

Request: Now give it for "S=C1N=C(Cl)C2(NN1)c1ccccc1-c1ccccc12" too.
Result: 17.9

Request: Now give it for O=C(O)CCC(C(=O)O)N1C(=O)C2C3CCC(C3)C2C1=O (configuration not stated) too.
Result: -26

Request: Now give it for "O=C(NC(=O)c1c(F)cccc1F)Nc1ccc(OCc2ccccc2)cc1" too.
Result: 24.4

Request: Now give it for "c1ccc2c(c1)ccc1c3c(oc12)CCCC3" too.
Result: -10.5

Request: Now give it for "COc1ccc(C(=O)/C=C/c2cc(C(C)(C)C)c(O)c(C(C)(C)C)c2)cc1" too.
Result: 17.4

Request: Now give it for "CN(CC(=O)NC(=O)c1ccccc1)c1ccccc1" too.
Result: 4

Request: Now give it for CCC(C)C(NS(=O)(=O)Cc1ccccc1)C(=O)O (configuration not stated) too.
Result: -3.85

Request: Now give it for "CNC(=O)c1nnn(Cc2ccc(OC)cc2)c1Cl" too.
Result: -8.05

Request: Now give it for "Cc1cc(-c2ccccc2N)nc2ccccc12" too.
Result: 47.5

Request: Now give it for "Cc1cnc2c(N)nc(-c3ccccc3)nc2n1" too.
Result: 8.55
